assay details: Plasma protein binding in mouse at 1000 ng/mL by equilibrium dialysis
Format: ADME, cell-free
condition context: read-out: PPB (converted)
outcome measure: fraction unbound at 1000 ng/mL
One number for each entry.

Tell me fraction unbound at 1000 ng/mL reported for C1=C2COC/C=C/COCc3cc(ccc3OCCN3CCCC3)Nc3nccc(n3)C(=C1)O2 (mixture of isomers)
0.127

* * *

assay details: Cmax in BALB/c nude mouse at 50 mg/kg, po
Type: ADME, organism-based
Set-up: dose 50 mg/kg, route oral
condition context: in vivo
outcome measure: Cmax
Form entry: enter the amount, then its unit.

Tell me Cmax reported for C1=C2COC/C=C/COCc3cc(ccc3OCCN3CCCC3)Nc3nccc(n3)C(=C1)O2 (mixture of isomers) [CT-1578]
1230 ng/mL

* * *

measured target: Receptor-type tyrosine-protein kinase FLT3 (Homo sapiens)
Sequence (P36888 whole entry): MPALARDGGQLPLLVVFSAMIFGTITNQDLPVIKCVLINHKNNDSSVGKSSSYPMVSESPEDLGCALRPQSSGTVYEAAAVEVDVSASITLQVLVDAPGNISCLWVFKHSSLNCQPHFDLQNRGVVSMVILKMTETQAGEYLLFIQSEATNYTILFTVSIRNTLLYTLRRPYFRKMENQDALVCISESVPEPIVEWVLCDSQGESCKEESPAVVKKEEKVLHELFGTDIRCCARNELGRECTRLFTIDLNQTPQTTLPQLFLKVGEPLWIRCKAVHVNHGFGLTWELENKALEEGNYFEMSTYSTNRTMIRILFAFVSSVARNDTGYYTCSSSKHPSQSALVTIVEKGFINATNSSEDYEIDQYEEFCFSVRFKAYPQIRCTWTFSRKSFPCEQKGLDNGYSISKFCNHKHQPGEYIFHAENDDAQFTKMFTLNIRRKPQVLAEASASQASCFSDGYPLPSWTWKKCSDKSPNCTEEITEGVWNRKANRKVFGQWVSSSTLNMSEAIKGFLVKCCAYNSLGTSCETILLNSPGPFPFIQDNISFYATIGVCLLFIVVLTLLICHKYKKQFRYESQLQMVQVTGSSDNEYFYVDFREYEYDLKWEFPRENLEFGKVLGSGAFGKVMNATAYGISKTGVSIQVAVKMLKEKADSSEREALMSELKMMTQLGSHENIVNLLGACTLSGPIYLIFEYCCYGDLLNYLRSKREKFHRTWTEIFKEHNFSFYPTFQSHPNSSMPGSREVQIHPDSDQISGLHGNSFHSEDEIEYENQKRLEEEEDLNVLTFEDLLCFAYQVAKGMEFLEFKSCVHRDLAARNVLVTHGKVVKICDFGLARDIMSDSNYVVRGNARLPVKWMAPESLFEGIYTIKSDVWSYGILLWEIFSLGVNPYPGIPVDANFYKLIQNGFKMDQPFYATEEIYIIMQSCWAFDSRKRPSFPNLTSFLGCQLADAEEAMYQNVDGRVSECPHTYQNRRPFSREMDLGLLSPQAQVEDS
assay details: Inhibition of recombinant FLT3 using poly(Glu,Tyr) as substrate after 2 hrs by luminometric assay
outcome measure: IC50 (nM)
One number for each entry, in nM.

Below, each entry is followed by its recorded IC50 result.
C1=C2COC/C=C/COCc3cc(ccc3OCCN3CCCC3)Nc3nccc(n3)C(=C1)S2 (mixture of isomers) ... 24
C1=C/Cn2ccc3ccc(cc32)-c2ccnc(n2)Nc2cccc(c2)COC/1 (mixture of isomers) ... 73
COCCOc1ccc2cc1CN(C)C/C=C/COCC1=CC=C(S1)c1ccnc(n1)N2 (mixture of isomers) ... 22

Quick request: IC50 for each listed item, please.
1. C1=C/COCc2cc(ccc2OCCN2CCCC2)Nc2nccc(n2)-c2coc(c2)COC/1 (mixture of isomers)
2. CN1C/C=C/COCC2=CC=C(O2)c2ccnc(n2)Nc2cccc(c2)C1 (mixture of isomers)
3. C1=C/Cn2ccc3ccc(cc32)-c2ccnc(n2)Nc2ccc(OCCN3CCCC3)c(c2)COC/1 (mixture of isomers)
4. C1=C/COCc2cc(ccc2OCCN2CCCC2)Nc2nccc(n2)-c2cc(co2)COC/1 (mixture of isomers)

[48, 770, 7.9, 180]

Quick request: IC50 for each listed item, please.
1. CN1C/C=C/CCOc2cc(ccn2)-c2ccnc(n2)Nc2cccc(c2)C1 (mixture of isomers)
2. CN1C/C=C/COCC2=CC=C(O2)c2ccnc(n2)Nc2ccc(OCCN3CCCC3)c(c2)C1 (mixture of isomers)
3. CN1C/C=C/CCn2ccc3ccc(cc32)-c2ccnc(n2)Nc2cccc(c2)C1 (mixture of isomers)
4. CN1C/C=C/COCC2=CC=C(S2)c2ccnc(n2)Nc2ccc(OCCN3CCCC3)c(c2)C1 (mixture of isomers)
5. C1=C2COC/C=C/COCc3cccc(c3)Nc3nccc(n3)C(=C1)O2 (mixture of isomers)
6. C1=C/COCc2cncc(c2)-c2ccnc(n2)Nc2cccc(c2)COC/1
7. C1=C/COCc2cc(ccc2OCCN2CCCC2)Nc2nccc(n2)-c2ccnc(c2)OCC/1 (mixture of isomers)

1. 310
2. 120
3. 93
4. 12
5. 620
6. 560
7. 31

Quick request: IC50 for each listed item, please.
1. CN1C/C=C/COCc2cncc(c2)-c2ccnc(n2)Nc2cccc(c2)C1 (mixture of isomers)
2. C1=C2COC/C=C/COCc3cc(ccc3OCCN3CCCC3)Nc3nccc(n3)C(=C1)O2 (mixture of isomers)

4800
60

* * *

assay details: Selectivity ratio of IC50 for recombinant JAK1 to IC50 for recombinant JAK2
outcome measure: Ratio IC50

Below, each entry is followed by its recorded Ratio IC50 result.
C1=C/COCc2cc(ccc2OCCN2CCCC2)Nc2nccc(n2)-c2csc(c2)COC/1 (mixture of isomers) ... 88
C1=C/COCc2cc(ccc2OCCN2CCCC2)Nc2nccc(n2)-c2ccc(o2)COC/1 (mixture of isomers) ... 58
C1=C/COCc2cc(ccc2OCCN2CCCC2)Nc2nccc(n2)-c2ccc(s2)COC/1 (mixture of isomers) ... 57

In the following, a different molecule is considered.
Tell me Ratio IC50 reported for C1=C/COCc2cc(ccc2OCCN2CCCC2)Nc2nccc(n2)-c2coc(c2)COC/1 (mixture of isomers)
45
